Test system: mustard, wild (wild mustard, Sinapis arvensis)
Assay details: Test D controlled growth environment herbicide test, pre- and postemergence
Type: in vivo
Details: Postemergence, 250 g ai/ha; scale 0 to 100 (0 no effect, 100 complete control)
Excerpt: […]
Parameter measured: Plant response rating, Mustard, Wild
// keep it numeric: no unit symbol after the value

Example compounds with recorded Plant response rating, Mustard, Wild:
Cc1nn(C)c(=O)c(-c2ccc(Br)c3ccccc23)c1O; 100
Cc1ccc2ccccc2c1-c1c(O)c(Br)nn(C)c1=O; 100
Cc1nn(C)c(=O)c(-c2c(C)sc3ccc(Br)cc23)c1O; 100
CCCC(=O)Oc1c(C)nn(C)c(=O)c1-c1c(C)sc2ccc(C)cc12; 75

// below: Plant response rating, Mustard, Wild requested for another compound
The reported Plant response rating, Mustard, Wild of the compound Cc1nn(C)c(=O)c(-c2cccc3ccccc23)c1O was 95

The reported numbers originate from patent US10597388B2.
